- System: STC-1 cells GLP-1 secretion
- assaySummary: half-maximal inhibitory concentration, STC-1 line, glucagon-like peptide-1 release potency, dose-dependent response (AID 1117345)
The source made the active and inactive calls. The rule behind the calls is not given here.
measurementName: IC50

The following molecules have reported results that may help.
1. Cc1ccc([N+](=O)[O-])[c]2c1[O][Hg]2 97.2 nM
2. CCCCCCCCCCCCCC[N+](C)(C)C > 40000 nM (inactive)
3. CCCCCCCCCCCC(=O)[O][Sn]([CH2]CCC)([CH2]CCC)[O]C(=O)CCCCCCCCCCC > 40000 nM (inactive)
4. CC(=O)[O][Hg][c]1ccccc1 713 nM

Can you look up the measured IC50 of OCCN1CCN(CC/C=C2/c3ccccc3Sc3ccc(C(F)(F)F)cc32)CC1 for me? > 40000 nM (inactive)
